# maps each entry to its inhibition
target: Serine/threonine-protein kinase Nek2 (Homo sapiens); settings: at 1 µM;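 note: reported values are mean percent inhibition of NEK2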
Value expressed in %; do not type the unit.

Here are 10 compounds together with their reported answers.
{"columns": ["compound", "test_system", "value_reported"],
 "data": [
  ["CCCN1CCCC(c2ccc(Nc3nc(Nc4cc(F)ccc4C(N)=O)c4cc[nH]c4n3)c(OC)c2)C1 (stereo not given)", "Serine/threonine-protein kinase Nek2 (Homo sapiens)", 11.1],
  ["c1ccc(Nc2ncc(-c3ccccc3)o2)cc1", "Serine/threonine-protein kinase Nek2 (Homo sapiens)", 0.59],
  ["O=C(Nc1ccc(Oc2ccc3[nH]c(NC(=O)c4ccco4)nc3c2)cc1)Nc1cc(C(F)(F)F)ccc1F", "Serine/threonine-protein kinase Nek2 (Homo sapiens)", 0.28],
  ["CC(C)c1ccc2c(c1)NC(=O)/C2=N/Nc1ccc(S(N)(=O)=O)cc1", "Serine/threonine-protein kinase Nek2 (Homo sapiens)", 0.29],
  ["COc1cc2ncn(-c3cc(OCc4ccccc4S(C)(=O)=O)c(C#N)s3)c2cc1OC", "Serine/threonine-protein kinase Nek2 (Homo sapiens)", 14.4],
  ["COc1cccc(-n2nc(C)c3c(N/N=C(\\C)c4ccncc4)ncnc32)c1", "Serine/threonine-protein kinase Nek2 (Homo sapiens)", -1.21],
  ["Cc1ccc2c(-c3ccnc(Nc4ccc5c(c4)OCCO5)n3)c(-c3ccc(C(F)(F)F)cc3)nn2n1", "Serine/threonine-protein kinase Nek2 (Homo sapiens)", 1.37],
  ["CS(=O)(=O)CCNCc1nc(-c2ccc3ncnc(Nc4ccc(OCc5cccc(C(F)(F)F)c5)cc4)c3c2)cs1", "Serine/threonine-protein kinase Nek2 (Homo sapiens)", 0.5],
  ["CS(=O)(=O)Nc1cccc(-c2ccc3c(NC(=O)C4CC4)n[nH]c3c2)c1", "Serine/threonine-protein kinase Nek2 (Homo sapiens)", 0.27],
  ["OCc1ccc(-c2nc(-c3ccccn3)c(-c3ccc4c(c3)OCO4)[nH]2)cc1", "Serine/threonine-protein kinase Nek2 (Homo sapiens)", 4.54]
]}

Supply reported inhibition belonging to this compound: `COc1cc(/C=N/Nc2ncnc3c2cnn3C(C)C)ccc1O`
6.4

Supply reported inhibition belonging to this compound: `Nc1nccc(-c2c(-c3ccc(F)cc3)nn3cc(C(F)(F)F)ccc23)n1`
1.3

Supply reported inhibition belonging to this compound: `NC(=O)c1cccc(Nc2nccc(Nc3cccc(F)c3)n2)c1`
1.09

Supply reported inhibition belonging to this compound: `NC(=O)c1sc(-n2cnc3ccccc32)cc1OCc1ccccc1Br`
3.39

Supply reported inhibition belonging to this compound: `Nc1ccc(C#Cc2cncnc2Nc2ccc(OCc3cccc(F)c3)c(Cl)c2)cc1`
3.39

###

Molecular target: Phosphorylase b kinase gamma catalytic chain, liver/testis isoform (Homo sapiens) (UniProt P15735);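 note: reported value is the mean inhibition of PHKG2 from the GSK_PKIS screening set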
Sequence (whole entry): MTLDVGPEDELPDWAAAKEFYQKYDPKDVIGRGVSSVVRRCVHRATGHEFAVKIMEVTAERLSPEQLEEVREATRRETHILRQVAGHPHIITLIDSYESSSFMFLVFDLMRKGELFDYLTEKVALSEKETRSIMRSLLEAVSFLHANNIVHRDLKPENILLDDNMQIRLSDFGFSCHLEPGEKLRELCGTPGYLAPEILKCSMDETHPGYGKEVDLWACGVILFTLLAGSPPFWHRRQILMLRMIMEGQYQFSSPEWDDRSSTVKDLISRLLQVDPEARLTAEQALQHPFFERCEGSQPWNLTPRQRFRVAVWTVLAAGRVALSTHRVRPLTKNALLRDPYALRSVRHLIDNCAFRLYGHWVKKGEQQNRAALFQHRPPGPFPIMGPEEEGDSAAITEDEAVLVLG
Conditions: at 1 µM
# maps each entry to its inhibition
Value expressed in %; do not type the unit.

Here are 10 molecules together with their reported answers.
{"columns": ["smiles_entry", "value_reported"],
 "data": [
  ["Cc1ccc(NC(=O)CC2CC2)cc1-c1ccc(C(=O)NCC2CC2)cc1", 4.9],
  ["COc1cc(Nc2nccc(-c3cnn4ncccc34)n2)cc(OC)c1", 15.6],
  ["COc1cc2ncnc(Nc3ccc4c(cnn4Cc4ccccc4)c3)c2cc1OC", 2.41],
  ["NS(=O)(=O)c1ccc(Nc2cc(-c3cccc(O)c3)n[nH]2)cc1", 6.34],
  ["Nc1ccc(C#Cc2cncnc2Nc2ccc(OCc3cccc(F)c3)c(Cl)c2)cc1", 4.32],
  ["Cc1ccc2c(-c3ccnc(Nc4ccc5c(c4)OCCO5)n3)c(-c3ccc(C(F)(F)F)cc3)nn2n1", 1.14],
  ["Cc1cc(Cl)cc2c1NC(=O)C2=NNc1ccc(S(N)(=O)=O)cc1", 5.19],
  ["Nc1nccc(-c2c(-c3ccc(F)cc3)ncn2CCCN2CCOCC2)n1", 4.82],
  ["COc1cccc(-n2ncc3c(N/N=C/c4ccc(S(C)(=O)=O)cc4)ncnc32)c1", 2.21],
  ["NC(=O)c1cccc(Nc2nccc(Nc3cccc(F)c3)n2)c1", 0.54]
]}

Supply reported inhibition belonging to this molecule: `CC(C)c1ccc(Nc2nccc(-c3cnn4ncccc34)n2)cc1`
3.83

Supply reported inhibition belonging to this molecule: `O=S(=O)(CCOCc1ccc(-c2ccc3ncnc(Nc4ccc(OCc5cccc(F)c5)c(Cl)c4)c3c2)o1)c1ccccc1`
-0.77

Supply reported inhibition belonging to this molecule: `NS(=O)(=O)c1ccc(-c2cc3ccncc3cc2OCc2ccccc2)cc1`
5.11

Supply reported inhibition belonging to this molecule: `CN(C)c1cc2c(Nc3ccc4c(cnn4Cc4ccccc4)c3)ncnc2cn1`
1.97

Supply reported inhibition belonging to this molecule: `OCc1ccc(-c2nc(-c3ccccn3)c(-c3ccc4c(c3)OCO4)[nH]2)cc1`
2.21

Supply reported inhibition belonging to this molecule: `C[C@@H](Oc1cc(-n2cnc3ccc(OC[C@@H](O)CO)cc32)sc1C(N)=O)c1ccccc1Cl`
-1.44

Supply reported inhibition belonging to this molecule: `CCS(=O)(=O)c1ccc(OC)c(Nc2ncc(-c3cccc(OC)c3)o2)c1`
-0.05

Supply reported inhibition belonging to this molecule: `Cc1ccc(C(=O)NC2CC2)cc1-c1ccc2[nH]ncc2c1`
-5.52

Supply reported inhibition belonging to this molecule: `O=C1Nc2ccc(-c3cccnc3)cc2C1=Cc1cc(Br)c(O)c(Br)c1`
-0.09

Supply reported inhibition belonging to this molecule: `CN(C)CCCn1c(-c2nonc2N)nc2cnccc21`
2.43

Supply reported inhibition belonging to this molecule: `CCn1c(-c2nonc2N)nc2c(C#CC(C)(C)O)nc(OCCNC)cc21`
4.33

###

target: Macrophage colony-stimulating factor 1 receptor (Homo sapiens); details: at 1 µM;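 note: mean inhibition of FMS, from the GSK PKIS screening set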
# maps each entry to its inhibition
Respond with a number, then the unit of measure.

{"columns": ["smiles_entry", "value_reported"],
 "data": [
  ["CCn1c(-c2nonc2N)nc2c(C#CC(C)(C)O)nc(OCCNC)cc21", "3.67%"],
  ["Cc1ccc(C(=O)NC2CC2)cc1-c1ccc2[nH]ncc2c1", "4.56%"],
  ["CC(C)c1ccc(Nc2nccc(-c3cnn4ncccc34)n2)cc1", "72.1%"],
  ["CN(C)CCCn1c(-c2nonc2N)nc2cnccc21", "1.06%"],
  ["COc1cccc(-n2nc(C)c3c(N/N=C(\\C)c4ccncc4)ncnc32)c1", "5.8%"]
]}

Supply reported inhibition belonging to this compound: `NS(=O)(=O)c1cccc(-c2cc3ccncc3cc2OCc2ccccc2)c1`
5.36%

###

# maps each entry to its inhibition
Molecular target: MAP kinase-activated protein kinase 5 (Homo sapiens) (UniProt Q8IW41);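 note: mean inhibition of PRAK measured in the GSK PKIS screen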
Sequence (whole entry): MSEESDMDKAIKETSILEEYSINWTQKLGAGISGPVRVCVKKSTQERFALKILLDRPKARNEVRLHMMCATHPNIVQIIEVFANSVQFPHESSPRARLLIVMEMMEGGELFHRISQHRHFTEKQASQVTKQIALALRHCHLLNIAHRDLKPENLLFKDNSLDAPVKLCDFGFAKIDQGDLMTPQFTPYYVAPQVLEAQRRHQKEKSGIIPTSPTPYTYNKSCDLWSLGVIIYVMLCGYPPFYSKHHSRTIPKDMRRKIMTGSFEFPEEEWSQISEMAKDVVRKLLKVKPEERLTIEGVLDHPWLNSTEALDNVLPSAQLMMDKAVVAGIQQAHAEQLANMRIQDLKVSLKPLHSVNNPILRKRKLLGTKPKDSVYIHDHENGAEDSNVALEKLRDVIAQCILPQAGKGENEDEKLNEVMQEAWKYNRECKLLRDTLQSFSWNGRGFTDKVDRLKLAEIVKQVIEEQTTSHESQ
Details: at 1 µM
Value expressed in %; do not type the unit.

Here are 3 compounds together with their reported answers.
{"columns": ["smiles_entry", "unit_name", "inhibition"],
 "data": [
  ["CN(C)c1cc2c(Nc3ccc4c(cnn4Cc4ccccc4)c3)ncnc2cn1", "%", 0.28],
  ["Cc1nc(-c2ccccc2)n2nc(NCCCN3CCOCC3)ncc12", "%", 0.74],
  ["CCn1c(-c2nonc2N)nc2ccc(F)cc21", "%", 4.45]
]}

State measured inhibition of the compound `COc1cccc(-n2nc(C)c3c(N/N=C(\C)c4ccncc4)ncnc32)c1` with MAP kinase-activated protein kinase 5 (Homo sapiens) (UniProt Q8IW41).
-0.64

State measured inhibition of the compound `NS(=O)(=O)c1cccc(Nc2cc(-c3ccc(F)cc3)n[nH]2)c1` with MAP kinase-activated protein kinase 5 (Homo sapiens) (UniProt Q8IW41).
2.81

State measured inhibition of the compound `COc1cc2ncnc(Nc3ccc(C)c(O)c3)c2cc1OC` with MAP kinase-activated protein kinase 5 (Homo sapiens) (UniProt Q8IW41).
2.36

State measured inhibition of the compound `Cc1ccc2c(-c3ccnc(Nc4ccc5c(c4)OCCO5)n3)c(-c3ccc(C(F)(F)F)cc3)nn2n1` with MAP kinase-activated protein kinase 5 (Homo sapiens) (UniProt Q8IW41).
0.83

State measured inhibition of the compound `COC(=O)c1cncc(/C=C/c2c(C)cc(O)cc2C)c1` with MAP kinase-activated protein kinase 5 (Homo sapiens) (UniProt Q8IW41).
2.57

Source listed as ChEMBL document CHEMBL1961873.
